# Tested on: LAPC4
# assay: Inhibition of colony formation in human LAPC4 cells at 10 uM incubated for 10 days by crystal violet staining based assay
# Format: functional
# condition info: LAPC4, 240 h, time 10 day

{"smiles entry": "Cc1c2c(nn1-c1ccc(F)cc1)C[C@@H]1CC[C@@H]3[C@H](CC[C@]4(C)C(=O)CC[C@@H]34)[C@@]1(C)C2", "assay target": "LAPC4", "inhibition at 10 µM / %": 15}
{"smiles entry": "C[C@]12Cc3cnn(-c4ccc(Cl)cc4)c3C[C@@H]1CC[C@@H]1[C@@H]2CC[C@]2(C)[C@@H](O)CC[C@@H]12", "assay target": "LAPC4", "inhibition at 10 µM / %": 0}
{"smiles entry": "Cc1c2c(nn1-c1ccccc1)C[C@@H]1CC[C@@H]3[C@H](CC[C@]4(C)[C@@H](O)CC[C@@H]34)[C@@]1(C)C2", "assay target": "LAPC4", "inhibition at 10 µM / %": 1}

###

# Test system: LAPC4
# assay: Downregulation of Nkx3.1 protein expression in human LAPC4 cells at 10 uM incubated for 24 hrs by immunoblotting analysis
# Type: functional, cell-based
The source made the active and inactive calls. The calls are words filed in the database; no cut-off is given here.
Outcomes: yes (active), no (inactive)

{"smiles entry": "C[C@]12Cc3c(nn(-c4ccccc4)c3-c3ccccc3)C[C@@H]1CC[C@@H]1[C@@H]2CC[C@]2(C)C(=O)CC[C@@H]12", "group label": "no"}
{"smiles entry": "C[C@]12Cc3cn(-c4ccc(F)cc4)nc3C[C@@H]1CC[C@@H]1[C@@H]2CC[C@]2(C)[C@@H](O)CC[C@@H]12", "group label": "no"}
{"smiles entry": "COc1ccc(-n2cc3c(n2)C[C@@H]2CC[C@@H]4[C@H](CC[C@]5(C)[C@@H](O)CC[C@@H]45)[C@@]2(C)C3)cc1", "group label": "no"}
{"smiles entry": "C[C@]12Cc3cn(-c4ccccc4)nc3C[C@@H]1CC[C@@H]1[C@@H]2CC[C@]2(C)[C@@H](O)CC[C@@H]12", "group label": "no"}
{"smiles entry": "C[C@]12Cc3c(nn(-c4ccccc4)c3-c3ccc(O)cc3)C[C@@H]1CC[C@@H]1[C@@H]2CC[C@]2(C)[C@@H](O)CC[C@@H]12", "group label": "no"}
{"smiles entry": "C[C@]12Cc3c(nn(-c4ccccc4)c3-c3ccc(O)cc3)C[C@@H]1CC[C@@H]1[C@@H]2CC[C@]2(C)C(=O)CC[C@@H]12", "group label": "no"}
{"smiles entry": "Cc1c2c(nn1C)C[C@@H]1CC[C@@H]3[C@H](CC[C@]4(C)[C@@H](O)CC[C@@H]34)[C@@]1(C)C2", "group label": "no"}
{"smiles entry": "Cc1ccc(-n2ncc3c2C[C@@H]2CC[C@@H]4[C@H](CC[C@]5(C)[C@@H](O)CC[C@@H]45)[C@@]2(C)C3)cc1", "group label": "yes"}
{"smiles entry": "C[C@]12Cc3cnn(-c4ccccc4)c3C[C@@H]1CC[C@@H]1[C@@H]2CC[C@]2(C)[C@@H](O)CC[C@@H]12", "group label": "yes"}
{"smiles entry": "C[C@]12Cc3cn(-c4ccc([N+](=O)[O-])cc4)nc3C[C@@H]1CC[C@@H]1[C@@H]2CC[C@]2(C)[C@@H](O)CC[C@@H]12", "group label": "no"}
{"smiles entry": "Cc1ccc(-n2cc3c(n2)C[C@@H]2CC[C@@H]4[C@H](CC[C@]5(C)[C@@H](O)CC[C@@H]45)[C@@]2(C)C3)cc1", "group label": "no"}
{"smiles entry": "C[C@]12Cc3cnn(-c4ccc(Cl)cc4)c3C[C@@H]1CC[C@@H]1[C@@H]2CC[C@]2(C)[C@@H](O)CC[C@@H]12", "group label": "yes"}
{"smiles entry": "C[C@]12Cc3cn(-c4ccc(C#N)cc4)nc3C[C@@H]1CC[C@@H]1[C@@H]2CC[C@]2(C)[C@@H](O)CC[C@@H]12", "group label": "no"}
{"smiles entry": "C[C@]12Cc3cn(-c4ccc(Cl)cc4)nc3C[C@@H]1CC[C@@H]1[C@@H]2CC[C@]2(C)[C@@H](O)CC[C@@H]12", "group label": "no"}
{"smiles entry": "C[C@]12Cc3cn(-c4ccc(Br)cc4)nc3C[C@@H]1CC[C@@H]1[C@@H]2CC[C@]2(C)[C@@H](O)CC[C@@H]12", "group label": "no"}
